Assay: NCI Yeast Anticancer Drug Screen. Data for the cln2 rad14 strain (AID 165);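 further: 0% = growth equal to vehicle treated cultures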
Conditions: S. cerevisiae cln2 rad14 strain, at 50.0 µM
Compounds without any hit were thinned out: in the full panel of roughly 79,000, 15% have a hit. Calls of active or inactive are those of the source. No stated cut-off is given here; in the data, active means growth inhibition above about 70%; inactive means the rest.
Outcome field: choose from Yes for active, No for inactive

*Q* Called result for O=c1/c(=C\C=C\c2ccccc2)sc2n1CCN=2
*A* No

###

Test: NCI Yeast Anticancer Drug Screen. Data for the rad50 strain (AID 155);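 further: 0% = growth of vehicle-only cultures of the same strain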
Conditions: S. cerevisiae rad50 strain growth inhibition; at 50.0 µM
Protocol: Growth inhibition of yeast strains with defined genetic alterations is measured as a screen for potential anti-cancer activity. Selected strains with alterations in DNA damage repair or cell cycle control were exposed to compounds and growth inhibition was measured relative to vehicle treated controls. The strain used in this assay is rad50
The panel holds about 79,000 compounds, 15% with a hit somewhere; the sample as a whole holds those more often. Active and inactive are the calls of the source. Rule as the data show it: active = growth inhibition above about 70%; inactive = the rest.
Outcome field: choose from yes (1) for active, no (0) for inactive

molecule: CCOC(=O)c1c(OC)ccc2ccccc12
classLabel: no (0)

*Q* Called result for CCc1cc2c(Nc3ccccc3)c3c(nc2s1)CCCC3
*A* no (0)

*Q* Called result for CC(C)c1ccc(/C=C2\C=Nc3ccccc32)cc1
*A* no (0)

*Q* Called result for O=C(O)c1ccc(C2C(=O)N[C@@H]3CCC[C@H]23)cc1 (stereo partly specified)
*A* no (0)

*Q* Called result for O=C(Cc1ccccc1)c1ccc(OCC(O)CN2CCN(c3ccccc3)CC2)cc1 (stereo unspecified)
*A* yes (1)

*Q* Called result for COC(=O)NC(Cc1ccccc1)NC(=O)OC(C)(C)C (stereo unspecified)
*A* no (0)
